Numbers sourced from paper PMC3523391.

# protocolSummary: in vivo
# Parameters: species or system mice
# studyConditions: female, athymic CrTac:NCr-Fox1(nu), mouse, po, 160 mg/kg
readoutType: concentration at 1 h after the last dose

molecule="COc1cc2c(N3CCN(C(=O)Nc4ccc(OC(C)C)cc4)CC3)ncnc2cc1OCCCN1CCCCC1 [MLN518]" datavalue="~200 nM"

* * *

# protocolSummary: in vivo
# Set-up: species or system mice
# studyConditions: female, athymic CrTac:NCr-Fox1(nu), mouse, po, 160 mg/kg
readoutType: concentration at 6 h after the last dose

molecule=COc1cc2c(N3CCN(C(=O)Nc4ccc(OC(C)C)cc4)CC3)ncnc2cc1OCCCN1CCCCC1 datavalue="~40 nM"
